- System: HT-1080.hFAP and HT-1080.wt xenografts
- assay overview: Quantitative biodistribution in HT-1080.hFAP and HT-1080.wt xenografted mice
- Type: in vivo
- measurement context: 4 h p.i., HT-1080.hFAP and HT-1080.wt xenografts
- Protocol: The tumors were allowed to grow to an average volume of 100-200 mm3. Biodistribution Studies: The xenografted mice were randomized (n=5 per group) and injected intravenously via the tail vein with the ^61Cu-labeled radioligands (100 μL, […], 0.8-1MBq). Mice were euthanized 1h and 4h pi. by CO2 asphyxiation. Organs of interest and blood were collected, rinsed of excess blood, blotted dry, weighed, and counted in a 7-counter. […]
# Biodistribution Liver values compiled below

>  <compound>
N#C[C@@H]1CC(F)(F)CN1C(=O)CNC(=O)c1ccnc2ccc(NC(=O)CCC(=O)NCCNC(=O)CC[C@H](C(=O)O)N3CCN4CCN(CC3)CC(=O)[O][61Cu][O]C(=O)C4)cc12 [[^61Cu]Cu-NODAGA-F1]

>  <target or system>
HT-1080.hFAP and HT-1080.wt xenografts

>  <Biodistribution Liver, % IA/g>
1.0

$$$$
>  <compound>
CN(CCCN1CCN(C(=O)CCC(C(=O)O)N2CCN3CCN(CC2)CC(=O)[O][61Cu][O]C(=O)C3)CC1)c1ccc2nccc(C(=O)NCC(=O)N3CC(F)(F)C[C@H]3C#N)c2c1 (some centres unmarked) [[^61Cu]Cu-NODAGA-FAPI-46]

>  <target or system>
HT-1080.hFAP and HT-1080.wt xenografts

>  <Biodistribution Liver, % IA/g>
0.8

$$$$
>  <compound>
CN(C(=O)CCC(=O)N1CCN(C(=O)CC[C@H](C(=O)O)N2CCN3CCN(CC2)CC(=O)[O][61Cu][O]C(=O)C3)CC1)c1ccc2nccc(C(=O)NCC(=O)N3CC(F)(F)C[C@H]3C#N)c2c1 [[^61Cu]Cu-NODAGA-F4]

>  <target or system>
HT-1080.hFAP and HT-1080.wt xenografts

>  <Biodistribution Liver, % IA/g>
0.4

$$$$
>  <compound>
CN(C(=O)CCC(=O)NCCNC(=O)CC[C@H](C(=O)O)N1CCN2CCN(CC1)CC(=O)[O][61Cu][O]C(=O)C2)c1ccc2nccc(C(=O)NCC(=O)N3CC(F)(F)C[C@H]3C#N)c2c1 [[^61Cu]Cu-NODAGA-F2]

>  <target or system>
HT-1080.hFAP and HT-1080.wt xenografts

>  <Biodistribution Liver, % IA/g>
0.6

$$$$
>  <compound>
N#C[C@@H]1CC(F)(F)CN1C(=O)CNC(=O)c1ccnc2ccc(NC(=O)CCC(=O)N3CCN(C(=O)CC[C@H](C(=O)O)N4CCN5CCN(CC4)CC(=O)[O][61Cu][O]C(=O)C5)CC3)cc12 [[^61Cu]Cu-NODAGA-F3]

>  <target or system>
HT-1080.hFAP and HT-1080.wt xenografts

>  <Biodistribution Liver, % IA/g>
0.7

$$$$

* * *

- Tested on: HT-1080.hFAP and HT-1080.wt xenografts
- assay overview: Quantitative biodistribution in HT-1080.hFAP and HT-1080.wt xenografted mice
- Assay type: in vivo
- measurement context: 1 h p.i., HT-1080.hFAP and HT-1080.wt xenografts

>  <molecule>
CN(C(=O)CCC(=O)NCCNC(=O)CC[C@H](C(=O)O)N1CCN2CCN(CC1)CC(=O)[O][61Cu][O]C(=O)C2)c1ccc2nccc(C(=O)NCC(=O)N3CC(F)(F)C[C@H]3C#N)c2c1 [[^61Cu]Cu-NODAGA-F2]

>  <Biodistribution Heart>
0.6 ± 0.1 % IA/g

$$$$
>  <molecule>
N#C[C@@H]1CC(F)(F)CN1C(=O)CNC(=O)c1ccnc2ccc(NC(=O)CCC(=O)NCCNC(=O)CC[C@H](C(=O)O)N3CCN4CCN(CC3)CC(=O)[O][61Cu][O]C(=O)C4)cc12 [[^61Cu]Cu-NODAGA-F1]

>  <Biodistribution Heart>
1.2 ± 0.3 % IA/g

$$$$
>  <molecule>
CN(C(=O)CCC(=O)N1CCN(C(=O)CC[C@H](C(=O)O)N2CCN3CCN(CC2)CC(=O)[O][61Cu][O]C(=O)C3)CC1)c1ccc2nccc(C(=O)NCC(=O)N3CC(F)(F)C[C@H]3C#N)c2c1 [[^61Cu]Cu-NODAGA-F4]

>  <Biodistribution Heart>
0.6 ± 0.0 % IA/g

$$$$
>  <molecule>
CN(CCCN1CCN(C(=O)CCC(C(=O)O)N2CCN3CCN(CC2)CC(=O)[O][61Cu][O]C(=O)C3)CC1)c1ccc2nccc(C(=O)NCC(=O)N3CC(F)(F)C[C@H]3C#N)c2c1 (some centres unmarked) [[^61Cu]Cu-NODAGA-FAPI-46]

>  <Biodistribution Heart>
1.1 ± 0.0 % IA/g

$$$$
>  <molecule>
N#C[C@@H]1CC(F)(F)CN1C(=O)CNC(=O)c1ccnc2ccc(NC(=O)CCC(=O)N3CCN(C(=O)CC[C@H](C(=O)O)N4CCN5CCN(CC4)CC(=O)[O][61Cu][O]C(=O)C5)CC3)cc12 [[^61Cu]Cu-NODAGA-F3]

>  <Biodistribution Heart>
0.7 ± 0.1 % IA/g

$$$$

* * *

- Tested on: HT-1080.hFAP and HT-1080.wt xenografts
- assay overview: Quantitative biodistribution in HT-1080.hFAP and HT-1080.wt xenografted mice
- Format: in vivo
- measurement context: 1 h p.i., HT-1080.hFAP and HT-1080.wt xenografts
Label Yes when Biodistribution Stomach is at or above 1 % IA/g; otherwise label No.

>  <compound>
CN(C(=O)CCC(=O)NCCNC(=O)CC[C@H](C(=O)O)N1CCN2CCN(CC1)CC(=O)[O][61Cu][O]C(=O)C2)c1ccc2nccc(C(=O)NCC(=O)N3CC(F)(F)C[C@H]3C#N)c2c1 [[^61Cu]Cu-NODAGA-F2]

>  <target or system>
HT-1080.hFAP and HT-1080.wt xenografts

>  <assigned class>
No

$$$$
>  <compound>
N#C[C@@H]1CC(F)(F)CN1C(=O)CNC(=O)c1ccnc2ccc(NC(=O)CCC(=O)N3CCN(C(=O)CC[C@H](C(=O)O)N4CCN5CCN(CC4)CC(=O)[O][61Cu][O]C(=O)C5)CC3)cc12 [[^61Cu]Cu-NODAGA-F3]

>  <target or system>
HT-1080.hFAP and HT-1080.wt xenografts

>  <assigned class>
No

$$$$
>  <compound>
CN(C(=O)CCC(=O)N1CCN(C(=O)CC[C@H](C(=O)O)N2CCN3CCN(CC2)CC(=O)[O][61Cu][O]C(=O)C3)CC1)c1ccc2nccc(C(=O)NCC(=O)N3CC(F)(F)C[C@H]3C#N)c2c1 [[^61Cu]Cu-NODAGA-F4]

>  <target or system>
HT-1080.hFAP and HT-1080.wt xenografts

>  <assigned class>
No

$$$$
>  <compound>
N#C[C@@H]1CC(F)(F)CN1C(=O)CNC(=O)c1ccnc2ccc(NC(=O)CCC(=O)NCCNC(=O)CC[C@H](C(=O)O)N3CCN4CCN(CC3)CC(=O)[O][61Cu][O]C(=O)C4)cc12 [[^61Cu]Cu-NODAGA-F1]

>  <target or system>
HT-1080.hFAP and HT-1080.wt xenografts

>  <assigned class>
Yes

$$$$

* * *

- assay overview: in vivo
- measurement context: athymic nude Foxn1+Foxn1+, mouse, iv, 20 umol, total radioactivity, Biodistribution Spleen
tissue uptake at 4 h listing for selected molecules.

>  <molecule>
C[C@@H](O)[C@@H]1NC(=O)[C@H](CCCCN)NC(=O)[C@@H](Cc2ccc(NC(N)=O)cc2)NC(=O)[C@H](Cc2ccc(O)cc2)NC(=O)[C@H](NC(=O)[C@H](Cc2ccc(Cl)cc2)NC(=O)CC[C@H](C(=O)O)N2CCN(CC(=O)O)CCN(CC(=O)O)CC2)CSSC[C@@H](C(=O)N[C@H](Cc2ccc(O)cc2)C(N)=O)NC1=O [[^61Cu]Cu-(R)-NODAGA-LM3, metal not drawn]

>  <scale unit>
%ID/g

>  <tissue uptake at 4 h>
0.17

$$$$
>  <molecule>
C[C@@H](O)[C@@H]1NC(=O)[C@H](CCCCN)NC(=O)[C@@H](Cc2ccc(NC(N)=O)cc2)NC(=O)[C@H](Cc2ccc(O)cc2)NC(=O)[C@H](NC(=O)[C@H](Cc2ccc(Cl)cc2)NC(=O)CCC(C(=O)O)N2CCN(CC(=O)O)CCN(CC(=O)O)CC2)CSSC[C@@H](C(=O)N[C@H](Cc2ccc(O)cc2)C(N)=O)NC1=O (some centres unmarked) [[^61Cu]Cu-NODAGA-LM3, metal not drawn]

>  <scale unit>
%ID/g

>  <tissue uptake at 4 h>
0.14

$$$$

* * *

- assay overview: Pharmacokinetics (biodistribution 1-24 h) in non-tumor bearing mice
- Format: in vivo
- measurement context: female, BALB/c, mouse, heart, 200 umol, total radioactivity; 12 hours after injection, ^64Cu; read-out: Biodistribution Heart
- Protocol: The biodistribution at the investigate time points was performed as described in the Example 9. The data were combined with the results obtained from the groups of xenografts at 1 hour and 4 hours p.i., as the biodistribution in nude mice was the same as in the healthy mice. The results were expressed as described in the Example 10.
endpoint label: tissue uptake at 12 h

>  <molecule>
C[C@@H](O)[C@@H]1NC(=O)[C@H](CCCCN)NC(=O)[C@@H](Cc2c[nH]c3ccccc23)NC(=O)[C@H](Cc2ccc(O)cc2)NC(=O)[C@@H](NC(=O)[C@@H](Cc2ccccc2)NC(=O)CCC(C(=O)O)N2CCN(CC(=O)O)CCN(CC(=O)O)CC2)CSSC[C@@H](C(=O)N[C@H](CO)[C@@H](C)O)NC1=O (single isomer, unassigned) [[^61/^64Cu]Cu-NODAGA-TOC, metal not drawn]

>  <assay value>
0.09 %ID/g

$$$$
